- TEST_SYSTEM: Fibroblast growth factor 2 (Homo sapiens, UniProt P09038)
- Sequence (P09038 143-288 limits assumed): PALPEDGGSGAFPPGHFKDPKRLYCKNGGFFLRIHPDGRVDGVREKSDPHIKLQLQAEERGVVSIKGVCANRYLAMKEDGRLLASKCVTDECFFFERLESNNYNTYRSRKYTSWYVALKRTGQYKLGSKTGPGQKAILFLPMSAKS
- TEST_METHOD_NOTES: Binding affinity to FGF2 (unknown origin) assessed as change in luminance intensity at 25 degC by SPR imaging sensor method
- TEST_PARAMETERS: read-out: Kd
pKd: −log10 of the molar value.
Mark not met for pKd values under 8, and met for everything at or above.

COMPOUND | CLASS_ASSIGNMENT
CC(=O)N[C@H]1[C@H](OC[C@@H](O)[C@@H](O)[C@H](O)[C@@H](O)CNc2cccc(NC(=O)CCCCC3CCSS3)c2)O[C@H](COS(=O)(=O)O)[C@H](O)[C@@H]1O[C@@H]1O[C@H](C(=O)O)[C@@H](O[C@@H]2O[C@H](COS(=O)(=O)O)[C@H](O)[C@H](O[C@@H]3O[C@H](C(=O)O)[C@@H](O)[C@H](O)[C@H]3OS(=O)(=O)O)[C@H]2NC(C)=O)[C@H](O)[C@H]1OS(=O)(=O)O (stereo partly specified) | not met
CC(=O)N[C@H]1[C@H](O[C@H]2[C@H](O)[C@@H](O)[C@H](O[C@@H]3[C@@H](NC(C)=O)[C@H](OC[C@@H](O)[C@@H](O)[C@H](O)[C@@H](O)CNc4cccc(NC(=O)CCCCC5CCSS5)c4)O[C@H](COS(=O)(=O)O)[C@@H]3OS(=O)(=O)O)O[C@@H]2C(=O)O)O[C@H](COS(=O)(=O)O)[C@H](OS(=O)(=O)O)[C@@H]1O[C@@H]1O[C@H](C(=O)O)[C@@H](O)[C@H](O)[C@H]1O (stereo partly specified) | met
CC(=O)N[C@H]1[C@H](O[C@H]2[C@H](O)[C@@H](OS(=O)(=O)O)[C@H](O[C@H]3[C@@H](O)[C@@H](COS(=O)(=O)O)O[C@@H](OC[C@@H](O)[C@@H](O)[C@H](O)[C@@H](O)CNc4cccc(NC(=O)CCCCC5CCSS5)c4)[C@@H]3NC(C)=O)O[C@@H]2C(=O)O)O[C@H](COS(=O)(=O)O)[C@H](OS(=O)(=O)O)[C@@H]1O[C@@H]1O[C@H](C(=O)O)[C@@H](O)[C@H](O)[C@H]1O (stereo partly specified) | met

Req: Quick check, pKd >= 8? CC(=O)N[C@H]1[C@H](O[C@H]2[C@H](O)[C@@H](O)[C@H](O[C@@H]3[C@@H](NC(C)=O)[C@H](OC[C@@H](O)[C@@H](O)[C@H](O)[C@@H](O)CNc4cccc(NC(=O)CCCCC5CCSS5)c4)O[C@H](CO)[C@@H]3OS(=O)(=O)O)O[C@@H]2C(=O)O)O[C@H](COS(=O)(=O)O)[C@H](OS(=O)(=O)O)[C@@H]1O[C@@H]1O[C@H](C(=O)O)[C@@H](O)[C@H](O)[C@H]1O (stereo partly specified)
Resp: met
